test system: Mus musculus; assay: Compound was evaluated for anticancer activity against Sarcoma180 tumor bearing mice by measuring T/C X 100 (dose 5 mg/kg daily); format: functional
Measured T/C of individual entries

{"smiles": "CNC(=O)OCC1=C(COC(=O)NC)C(=O)c2ccccc2C1=O", "system.name": "Mus musculus", "T/C": 177}
{"smiles": "Cc1ccc(S(=O)(=O)OCC2=C(COS(=O)(=O)c3ccc(C)cc3)C(=O)c3ccccc3C2=O)cc1", "system.name": "Mus musculus", "T/C": 138}
{"smiles": "O=C(NCCCl)OCC1=C(COC(=O)NCCCl)C(=O)c2ccccc2C1=O", "system.name": "Mus musculus", "T/C": 209}
{"smiles": "CS(=O)(=O)OCC1=C(COS(C)(=O)=O)C(=O)c2ccccc2C1=O", "system.name": "Mus musculus", "T/C": 204}

====

Measured T/C of individual entries
test system: Mus musculus; experiment: Compound was evaluated for anticancer activity against Sarcoma180 tumor bearing mice by measuring T/C X 100 (dose 2.5 mg/kg daily); assay type: functional
measurement.type: T/C

{"smiles": "CNC(=O)OCC1=C(COC(=O)NC)C(=O)c2ccccc2C1=O", "system.name": "Mus musculus", "observed.value": 266}
{"smiles": "O=C(NCCCl)OCC1=C(COC(=O)NCCCl)C(=O)c2ccccc2C1=O", "system.name": "Mus musculus", "observed.value": 230}
{"smiles": "CS(=O)(=O)OCC1=C(COS(C)(=O)=O)C(=O)c2ccccc2C1=O", "system.name": "Mus musculus", "observed.value": 114}
{"smiles": "Cc1ccc(S(=O)(=O)OCC2=C(COS(=O)(=O)c3ccc(C)cc3)C(=O)c3ccccc3C2=O)cc1", "system.name": "Mus musculus", "observed.value": 130}

====

tested on: Mus musculus; test: Compound was evaluated for anticancer activity against Sarcoma180 tumor bearing mice by measuring T/C X 100 (dose 15 mg/kg daily); type: functional

{"smiles": "O=C1C(CBr)=C(CBr)C(=O)c2ccccc21", "T/C": 140}
{"smiles": "O=C1C(CCl)=C(CCl)C(=O)c2ccccc21", "T/C": 122}
{"smiles": "CC1=C(C)C(=O)c2ccccc2C1=O", "T/C": 103}
{"smiles": "O=C1C(CO)=C(CO)C(=O)c2ccccc21", "T/C": 37}

====

test system: Mus musculus; experiment: Compound was evaluated for anticancer activity against Sarcoma180 tumor bearing mice by measuring average weight (dose 2.5 mg/kg daily); format: functional
Measured Average weight of individual entries

{"smiles": "O=C(NCCCl)OCC1=C(COC(=O)NCCCl)C(=O)c2ccccc2C1=O", "Average weight": "0%"}
{"smiles": "Cc1ccc(S(=O)(=O)OCC2=C(COS(=O)(=O)c3ccc(C)cc3)C(=O)c3ccccc3C2=O)cc1", "Average weight": "22.3%"}
{"smiles": "CS(=O)(=O)OCC1=C(COS(C)(=O)=O)C(=O)c2ccccc2C1=O", "Average weight": "18.4%"}
{"smiles": "CNC(=O)OCC1=C(COC(=O)NC)C(=O)c2ccccc2C1=O", "Average weight": "3.8%"}
